Experiment: Pharmacokinetics of Bazedoxifene in CD-1 mice (plasma, LC-MS-MS)
Type: in vivo
Settings: CD-1, mouse, plasma, oral, 200 mg/kg, 200 mg/kg single dose; 2 hours post dose; free and bound combined; individual animals; read-out: Plasma Bazedoxifene Concentrations
measurement name: concentration at 2 h (µM)
Your answer should be a plain number; it is taken to be in µM.

Ask | Supply reported concentration at 2 h belonging to this compound: Cc1c(-c2ccc(O)cc2)n(Cc2ccc(OCCN3CCCCCC3)cc2)c2ccc(O)cc12 [Bazedoxifene]
Reply | 3.27

====

Assay: Pharmacokinetics of Bazedoxifene in CD-1 mice (plasma, LC-MS-MS)
Type: in vivo
Conditions: CD-1, mouse, plasma, oral, 200 mg/kg, 200 mg/kg single dose; 4 hours post dose; free and bound combined; individual animals; read-out: Plasma Bazedoxifene Concentrations
measurement name: concentration at 4 h
Don't forget the unit after the value.

Ask | Tell me its concentration at 4 h given Cc1c(-c2ccc(O)cc2)n(Cc2ccc(OCCN3CCCCCC3)cc2)c2ccc(O)cc12 as the entry.
Reply | 1580 nM

The reported numbers originate from patent US20210386788A1.
